FYI, the data here is from PubChem BioAssay AID738.

- Test Method Notes: growth inhibition of yeast control strain, primary screen, counter-screen for post-Golgi transport modulator project (AID 738)
- Applied Conditions: efflux-deficient yeast background strain, growth absorbance A615, 16 h; at 10 µM; stronger effect = higher value
Out of some 98,000 compounds screened, about 4,900 (5%) were called active. This excerpt belongs to a sample that is enriched for actives.
Measured Parameter: inhibition (%)
Give bare numbers, in %.

>>> val("Cc1cc(-c2ccccc2)n2nc(C)c(-c3ccccc3)c2n1")
0.91

Give one value of inhibition per listed molecule.
1. Cc1ccccc1CS(=O)(=O)CC1(O)CCN(C(=O)c2cccc(C(F)(F)F)c2)CC1
2. O=C(NCc1cccnc1)c1ccc(CS(=O)(=O)c2ccc(Br)cc2)o1
3. CCOC(=O)CSc1nnc(-c2cccc(Br)c2)o1
4. Nc1c(-c2cccc(Cl)c2)cnn1-c1cccc([N+](=O)[O-])c1
5. Cc1[nH]c(=O)c(C(=O)/C=C/c2ccccc2)c2c1CCCC2
6. C/C(=N/NC(=O)c1ccc(NC(=O)c2ccc(F)cc2)cc1)c1ccccc1
7. O=c1cc(CSc2ccccn2)nc(N2CCN(c3ccccc3)CC2)[nH]1

4.49
-2.42
31.6
4.05
24.5
4.86
8.73

Give one value of inhibition per listed molecule.
1. CC(=O)c1cccc(NC(=O)Nc2ccc(C)cc2)c1
2. COc1ccccc1N1CCN(Cc2ccc(OC)c3ccccc23)CC1
3. Cc1ccc(-c2nnc(-n3nnc4ccccc43)c3ccccc23)cc1
4. COc1ccc(C(c2nnnn2Cc2cccs2)N2CCN(c3ccccc3)CC2)cc1OC (stereo not drawn)
5. O=C(/C=C/c1cc2c(cc1Br)OCO2)NCc1ccc(Cl)cc1
6. Cc1nc2ccccc2c(=O)n1CCCn1ccnc1
7. Cc1ccc(-n2c(C)cc(/C=C(\C#N)C(=O)NCC3CCCO3)c2C)cc1 (stereo not drawn)

0.29
34.9
12
11.7
9.36
1.67
10.8

Give one value of inhibition per listed molecule.
1. Cc1cccc(N2CCN(C(c3ccccc3)c3nnnn3CC3CCCO3)CC2)c1C (stereo not drawn)
2. CCc1ccc(NC(=O)CSc2nc3ccccc3c(=O)n2CCN2CCOCC2)cc1
3. COc1ccccc1N1CCN(CCCCOc2ccc(F)cc2)CC1
4. CCn1c(/C=C/c2ccc([N+](=O)[O-])o2)nc2ccccc2c1=O
5. C=CC[n+]1c(-c2ccc(C)cc2)csc1NNC(=O)Nc1ccccc1

44.4
7.51
-0.55
68
40.7

###

- Test Method Notes: growth inhibition of yeast control strain, primary screen, counter-screen for post-Golgi transport modulator project (AID 738)
- Applied Conditions: efflux-deficient yeast background strain, growth absorbance A615, 16 h; at 10 µM; stronger effect = higher value
Among all 98,000 compounds or so, about 4,900 (5%) were called active. The full list was thinned out, with actives kept by preference.
Measured Parameter: inhibition (%)
Answers are plain numbers, in %.

Worked examples follow.
>>> val("Cc1ccccc1OCc1nnc(SCC(=O)N2c3ccccc3Sc3ccc(Cl)cc32)o1")
5.3
>>> val("O=C(COC(=O)c1ccccc1SCC(=O)NC1CCCCC1)NC1CCCCC1")
0.43
>>> val("CC1(C)CC(=O)C2=C(C1)N=C1SCCC(=O)N1C2c1ccc(C(F)(F)F)cc1 (centres undefined)")
10.4
>>> val("COc1cc(/C=N/O)cc(Br)c1OCc1cccc(Cl)c1")
68
>>> val("CN(C)c1ccc(NC(=S)N(CCc2ccccc2)C2CC(=O)N(c3c(Cl)cccc3Cl)C2=O)cc1 (centres undefined)")
5.66
>>> val("Cc1ccc(-c2noc(CSc3nnc(-c4cccs4)n3C)n2)cc1")
5.22
>>> val("Fc1ccccc1/C=C1\\CCCC2=C1Nc1ncnn1C2c1ccccc1F (centres undefined)")
35.8
>>> val("Cn1cccc1Cc1nnc(SCC(=O)NCCc2ccccc2)n1-c1ccc(F)cc1")
2.46
>>> val("CCOC(=O)N1CCN(C(=O)c2cc3c(-c4ccc(Cl)cc4)nn(C)c3s2)CC1")
22.3
>>> val("S=C(NCCC1=CCCCC1)Nc1ccccc1")
2.15

Give one value of inhibition per listed molecule.
1. Cc1ccc(-c2noc(CC(c3ccccc3)c3ccccc3)n2)cc1
2. Cc1nn(-c2ncc(C(F)(F)F)cc2Cl)c(=O)n1-c1ccccc1
3. Cc1ccc(S(=O)(=O)N2CCC(C(=O)NCC3CCCO3)CC2)cc1 (centres undefined)
4. COc1cccc(/C=N/NC(=O)c2cccc([N+](=O)[O-])c2)c1OS(=O)(=O)c1ccc(C)cc1
5. CC(Sc1nc2ccccc2c(=O)n1Cc1ccco1)C(=O)c1ccccc1 (centres undefined)

[3.45, 10.2, 11.9, 6.93, 20.6]

Give one value of inhibition per listed molecule.
1. Cc1ccc(NC(=O)N2CCC(c3nc4c(nnn4Cc4c(F)cccc4Cl)c(=O)[nH]3)CC2)cc1
2. Cc1cc(C)c2nc(NC(=O)c3ccc4c(c3)OCO4)sc2c1
3. O=C(Nc1ccc2c(c1)OCCO2)c1cnccn1

1. 8.76
2. 21.3
3. 14.2

Give one value of inhibition per listed molecule.
1. Cn1cnc([N+](=O)[O-])c1Sc1ccccc1
2. Cc1ccc(-c2ccnc3nc(Sc4ncc(C(F)(F)F)cc4Cl)nn23)cc1
3. COc1cc(SC)ccc1C(=O)NCCOc1ccccc1Cl
4. O=C(CCN1C(=O)c2ccncc2C1=O)Nc1ccc2c(c1)OCCO2
5. COc1cc(Cl)c(C)cc1NC(=O)CSc1nnc(-c2ccco2)n1CC(C)C

[7.56, 36.2, 28.9, 30.7, 34]

Give one value of inhibition per listed molecule.
1. O=C(Nc1ccc2c(c1)OCCO2)c1ccncc1
2. Cc1cccc(CSc2nnc(NC(=O)CSc3nnc(C)s3)s2)c1
3. Cc1ccc(-c2noc(CSc3nnc(-c4ccncc4)n3-c3ccc(F)cc3)n2)cc1
4. CCN(CC)CCN1C(=O)C(=O)/C(=C(/O)c2cnn(-c3ccccc3)c2C)C1c1cccs1 (centres undefined)
5. COCCNC(=O)c1onc(CSc2cccc(C)c2)c1C(=O)O

[31.6, 22.5, 38.4, 10.5, -8.59]

Give one value of inhibition per listed molecule.
1. Cc1ccccc1N/N=C/c1ccc(N2CCOCC2)cc1
2. Cc1ccc(N(NC(=O)C(C)(C)O)C(=O)c2ccccc2)cc1C
3. CC(=O)c1c(C)[nH]c(C(=O)NCc2ccc(C)cc2)c1C
4. Cc1[nH]n(-c2ccccc2)c(=O)c1CCOC(=O)c1ccc(C(F)(F)F)cc1
5. CCCCC(=O)Nc1ccc2c(c1)OCCO2
6. O=C(CNS(=O)(=O)c1ccc(Br)s1)N1CCN(C(=O)c2ccco2)CC1
7. O=C(NCCc1ccccn1)c1cc(C(=O)C2CCCCC2)c[nH]1
8. COc1ccc(C)cc1NC(=O)c1[nH]c(C)c(C(C)=O)c1C

20
0.77
5.25
33.5
-0.45
-3.81
-1.83
55

Give one value of inhibition per listed molecule.
1. CCOC(=O)N1CCN(C(c2cccnc2)c2ccc3cccnc3c2O)CC1 (centres undefined)
2. Fc1ccc(-n2c(Cc3ccccc3)nnc2SCc2nc(-c3ccc(Cl)cc3)no2)cc1

1. 1.65
2. 46.4

Give one value of inhibition per listed molecule.
1. O=C(CSc1nnc(Cc2ccccc2)n1-c1ccccc1)N1CCOCC1
2. Cc1cc(C)n(-c2c(F)c(F)c(COC(=O)c3ccccc3)c(F)c2F)n1
3. Cn1nc(-c2ccc(Cl)cc2)c2cc(C(=O)NCc3ccco3)sc21
4. Cn1c(=O)n(C)c2cc(C(=O)Nc3ccc4c(c3)OCO4)ccc21
5. CCC(=O)NC(NCC1CCCO1)C(Cl)(Cl)Cl (centres undefined)
6. COc1ccc(-c2noc(CSc3ccc(C)cc3)n2)cc1

[-1.82, 25.1, 34.4, 1.14, -2.21, 4.57]

###

Assign inhibition to each entry below.
- Test Method Notes: growth inhibition of yeast control strain, primary screen, counter-screen for post-Golgi transport modulator project (AID 738)
- Applied Conditions: efflux-deficient yeast background strain, growth absorbance A615, 16 h; at 10 µM; stronger effect = higher value
The campaign covered roughly 98,000 compounds. About 4,900 (5%) were called active. The sample holds actives, similar compounds and a random draw of the others, so the mix is not that of the screen.
Numbers only, in %.

Worked examples follow.
>>> val("CCOC(=O)c1c(-c2ccccc2)csc1NC(=S)NC(=O)c1ccccc1")
15.1
>>> val("O=C(O)c1ccccc1-c1ccccc1C(=O)Nc1cccc2ccccc12")
9.42
>>> val("COc1cccc(-c2nc(S(=O)(=O)c3ccccc3)c(N3CCOCC3)o2)c1")
15.6
>>> val("O=C(c1ccc(F)cc1)c1c[nH]c(C(=O)NCc2cccnc2)c1")
1.34
>>> val("COC(=O)c1cc(C(=O)OC)cc(N2C(=O)CC(N3CCN(c4ccccc4)CC3)C2=O)c1 (configuration not stated)")
-1.95
>>> val("Cc1ccccc1OC/C(O)=C(\\C#N)c1nc2ccccc2[nH]1")
48.1
>>> val("COc1cccc(-c2cc3nc4c(c(N5CCC6(CC5)OCCO6)n3n2)CCCC4)c1")
77.5
>>> val("N#C/C(=C(/O)COc1cccc2ccccc12)c1nc2ccccc2[nH]1")
-2.22
>>> val("CCOc1ccc(OCC)c(-c2c(=O)n(OCc3ccc(Cl)cc3)c3ccccc3[n+]2[O-])c1")
11.6
>>> val("CC(C)C(c1nnnn1C1CCCC1)N1CCN(c2ccccc2F)CC1 (configuration not stated)")
42.7

Give one value of inhibition per listed molecule.
1. Cc1ccccc1-n1c(C)cc(/C=N/NC(=O)c2ccc(CN3CCOCC3)cc2)c1C
2. Clc1ccc(COn2c(-c3ccc(Cl)cc3Cl)nc3ncccc32)cc1
3. CC(C)NC(=O)C(=O)N/N=C/c1ccco1
4. Cc1nn(CC(=O)Nc2nc3ccccc3s2)c(C)c1[N+](=O)[O-]
5. CC(C)C(c1nnnn1Cc1ccccc1)N1CCC(C(N)=O)CC1 (configuration not stated)
6. CN1CCN(C(=O)C2C3C=CC(C3)C2C(=O)O)CC1 (configuration not stated)
7. COC(=O)Cc1nc2ccccc2[nH]1

1. 7.99
2. 66.1
3. 4.76
4. -2.54
5. -0.16
6. 36.6
7. 0.73

Give one value of inhibition per listed molecule.
1. COc1ccc(Oc2c(Cl)cnn(-c3ccccc3)c2=O)cc1
2. O=C(Nc1ccc(Br)c2cccnc12)c1ccc(Cn2cc([N+](=O)[O-])cn2)o1
3. COc1cccc(CNc2nc3nc4c(c(=O)n3[nH]2)CCC4)c1
4. O=C1CC(c2ccccc2)C(=O)N1c1cccc(O)c1 (configuration not stated)
5. O=[N+]([O-])c1cccc(-c2nnc3c4ccccc4c4ccccc4n23)c1

1: -3.86; 2: 30.3; 3: 3.19; 4: 47.5; 5: 6.93
